- ASSAYED_SYSTEM: RecA (Escherichia coli, UniProt P0A7G6)
- Sequence (P0A7G6 2-353): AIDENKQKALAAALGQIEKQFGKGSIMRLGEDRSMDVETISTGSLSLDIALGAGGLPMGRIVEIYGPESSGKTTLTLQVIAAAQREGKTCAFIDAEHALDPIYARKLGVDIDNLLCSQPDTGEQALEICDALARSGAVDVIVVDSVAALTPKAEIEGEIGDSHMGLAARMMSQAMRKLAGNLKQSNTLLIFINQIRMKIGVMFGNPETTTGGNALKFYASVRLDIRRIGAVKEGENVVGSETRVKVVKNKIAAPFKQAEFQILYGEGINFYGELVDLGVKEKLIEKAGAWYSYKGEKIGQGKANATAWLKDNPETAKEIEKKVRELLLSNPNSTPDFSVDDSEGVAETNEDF
pKd: −log10 of the molar value.
MEASUREMENT_LABEL: pKd

1) Cc1ccc(C(=O)Nc2ccc(S(=O)(=O)O)c3cc(S(=O)(=O)O)cc(S(=O)(=O)O)c23)cc1NC(=O)c1cccc(NC(=O)Nc2cccc(C(=O)Nc3cc(C(=O)Nc4ccc(S(=O)(=O)O)c5cc(S(=O)(=O)O)cc(S(=O)(=O)O)c45)ccc3C)c2)c1 [cpd01, suramin] | 4.75

[I] COc1cc(-c2ccc(N=Nc3ccc4c(S(=O)(=O)O)cc(S(=O)(=O)O)c(N)c4c3O)c(OC)c2)ccc1N=Nc1ccc2c(S(=O)(=O)O)cc(S(=O)(=O)O)c(N)c2c1O [s05, Chicago sky blue]
[II] Cc1cc(-c2ccc(/N=N/c3ccc4c(S(=O)(=O)O)cc(S(=O)(=O)O)c(N)c4c3O)c(C)c2)ccc1/N=N/c1ccc2c(S(=O)(=O)O)cc(S(=O)(=O)O)c(N)c2c1O [s06, Evans blue]
Task for the reader: decide whether I or II has the larger pKd. Answer by stating the label of the chosen item. II
